Property: IC50; scope: individual compounds
# System Tested: LRRK2 G2019S (Homo sapiens, UniProt Q5S007, G2019S)
# Sequence (Q5S007 whole entry G2019S): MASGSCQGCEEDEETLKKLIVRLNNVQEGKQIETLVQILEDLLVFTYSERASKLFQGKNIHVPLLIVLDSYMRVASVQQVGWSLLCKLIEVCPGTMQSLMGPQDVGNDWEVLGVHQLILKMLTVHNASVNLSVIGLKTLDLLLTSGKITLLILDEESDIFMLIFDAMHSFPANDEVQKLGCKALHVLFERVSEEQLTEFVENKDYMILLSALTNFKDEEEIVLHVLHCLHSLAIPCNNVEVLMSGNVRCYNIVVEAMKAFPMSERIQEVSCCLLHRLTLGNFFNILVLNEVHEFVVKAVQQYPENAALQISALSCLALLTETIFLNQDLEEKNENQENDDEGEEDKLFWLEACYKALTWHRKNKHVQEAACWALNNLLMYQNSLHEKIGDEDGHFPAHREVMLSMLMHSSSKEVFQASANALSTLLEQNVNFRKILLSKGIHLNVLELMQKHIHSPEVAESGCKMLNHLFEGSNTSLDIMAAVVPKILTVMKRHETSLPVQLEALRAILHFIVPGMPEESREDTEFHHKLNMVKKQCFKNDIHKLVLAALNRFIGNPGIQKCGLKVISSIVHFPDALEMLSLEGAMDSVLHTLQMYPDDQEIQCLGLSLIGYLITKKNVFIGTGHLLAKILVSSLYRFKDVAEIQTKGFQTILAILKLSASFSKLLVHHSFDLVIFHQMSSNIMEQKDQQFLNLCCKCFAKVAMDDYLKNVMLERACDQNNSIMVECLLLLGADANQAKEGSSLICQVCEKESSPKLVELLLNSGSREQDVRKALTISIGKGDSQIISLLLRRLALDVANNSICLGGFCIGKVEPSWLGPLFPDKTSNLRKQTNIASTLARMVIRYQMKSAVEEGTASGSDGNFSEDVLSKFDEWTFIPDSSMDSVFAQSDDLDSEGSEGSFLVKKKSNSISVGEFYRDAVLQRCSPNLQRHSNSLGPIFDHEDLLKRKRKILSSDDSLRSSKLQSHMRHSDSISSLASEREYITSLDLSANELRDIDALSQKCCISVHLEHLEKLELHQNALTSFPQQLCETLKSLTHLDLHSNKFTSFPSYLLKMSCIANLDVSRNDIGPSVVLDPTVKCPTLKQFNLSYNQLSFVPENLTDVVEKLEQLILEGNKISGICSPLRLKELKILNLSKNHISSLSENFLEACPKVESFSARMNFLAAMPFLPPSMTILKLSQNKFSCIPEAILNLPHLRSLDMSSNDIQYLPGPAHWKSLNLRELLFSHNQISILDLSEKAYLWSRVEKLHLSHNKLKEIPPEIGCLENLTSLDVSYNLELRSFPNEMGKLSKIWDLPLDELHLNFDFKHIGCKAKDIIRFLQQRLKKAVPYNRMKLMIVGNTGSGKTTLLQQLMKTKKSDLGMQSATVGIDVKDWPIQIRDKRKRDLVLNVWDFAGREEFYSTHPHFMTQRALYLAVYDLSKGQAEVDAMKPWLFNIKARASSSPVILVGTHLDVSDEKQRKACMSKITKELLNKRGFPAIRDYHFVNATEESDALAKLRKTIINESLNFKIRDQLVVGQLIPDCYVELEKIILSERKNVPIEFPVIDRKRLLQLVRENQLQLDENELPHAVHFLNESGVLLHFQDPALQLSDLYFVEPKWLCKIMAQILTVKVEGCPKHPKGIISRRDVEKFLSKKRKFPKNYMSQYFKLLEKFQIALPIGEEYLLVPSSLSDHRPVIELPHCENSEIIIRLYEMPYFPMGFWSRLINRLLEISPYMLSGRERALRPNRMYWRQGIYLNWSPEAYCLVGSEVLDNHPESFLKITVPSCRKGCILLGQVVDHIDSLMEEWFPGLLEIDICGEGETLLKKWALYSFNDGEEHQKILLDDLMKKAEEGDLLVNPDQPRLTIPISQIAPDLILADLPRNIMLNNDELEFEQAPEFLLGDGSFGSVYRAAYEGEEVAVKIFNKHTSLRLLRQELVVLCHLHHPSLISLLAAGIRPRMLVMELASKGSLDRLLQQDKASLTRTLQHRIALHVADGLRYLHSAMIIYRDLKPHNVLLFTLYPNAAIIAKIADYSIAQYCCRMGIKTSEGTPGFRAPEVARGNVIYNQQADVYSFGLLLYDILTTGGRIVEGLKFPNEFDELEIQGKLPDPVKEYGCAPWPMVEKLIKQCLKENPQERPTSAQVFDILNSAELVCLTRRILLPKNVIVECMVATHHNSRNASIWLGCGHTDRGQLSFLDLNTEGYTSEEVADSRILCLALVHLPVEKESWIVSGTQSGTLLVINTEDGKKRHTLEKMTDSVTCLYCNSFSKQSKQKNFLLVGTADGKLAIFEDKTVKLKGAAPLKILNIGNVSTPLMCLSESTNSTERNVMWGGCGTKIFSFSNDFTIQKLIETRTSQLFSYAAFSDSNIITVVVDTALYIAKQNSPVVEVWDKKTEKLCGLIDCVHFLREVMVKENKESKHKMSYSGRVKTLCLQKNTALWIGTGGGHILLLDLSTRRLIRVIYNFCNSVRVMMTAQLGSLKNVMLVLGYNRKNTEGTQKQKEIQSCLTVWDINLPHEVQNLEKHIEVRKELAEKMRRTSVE
# Procedure Summary: LRRK2 G2019S Km ATP LanthaScreen assay
# Format: biochemical
# Condition Context: read-out: LRRK2 pIC50 (converted)

Compound: CC(CC#N)c1cc2cc(NC(=O)C3CC3c3ccccn3)ncc2cc1Cl (single isomer, unassigned) [Ex-9.22]
System Tested: LRRK2 G2019S (Homo sapiens, UniProt Q5S007, G2019S)
IC50: 129 nM
--
Compound: Cn1cc(C2CC2C(=O)Nc2cc3cc(C4(C#N)CC45CC5)ccc3cn2)cn1 (single isomer, unassigned) [Ex-1.23]
System Tested: LRRK2 G2019S (Homo sapiens, UniProt Q5S007, G2019S)
IC50: 1.58 nM
--
Compound: O=C(Nc1cc2cc(C3CCN(C4COCC4O)CC3)c(Cl)cc2cn1)C1CC1 (single isomer, unassigned) [Ex-12.4]
System Tested: LRRK2 G2019S (Homo sapiens, UniProt Q5S007, G2019S)
IC50: 66.1 nM
--
Compound: Cc1nc(C(=O)Nc2cc3cc(C4CCN(C5COC5)CC4)c(Cl)cc3cn2)co1
System Tested: LRRK2 G2019S (Homo sapiens, UniProt Q5S007, G2019S)
IC50: 12.6 nM
